The values you see were collected from the nanobody polyreactivity screen of Harvey et al. (2022).

experiment: yeast display, Sf9 membrane polyspecificity reagent, FACS + sequencing; frameworks hold sequencing errors
Metric name: polyreactivity (PSR sort gate)

Sample answers from the record:
{"columns": ["Input sequence", "Endpoint result"],
 "data": [
  ["QVQLVESGGRLVQAGGSLRLSCAASGSTFAVYAMGWYRQAPGKERELVAAINRSGDSTYYADSVKGRFTISRDNAKNTVYLQMNSLKPEDTAVYYCAVSAWTRSHALYYWGQGTQVTVSS", "high polyreactivity"],
  ["QVQLVESGGGLVQAGGSLRLSCAASGSTFPSYVMGWYRQAPGKEREMVAAISSSGGRTYYADSVKGRFTISRDNAKNTVYLQMNSLKPEDTAVYYCAAKRGPLVNDHQFWGQGTQVTVSS", "high polyreactivity"],
  ["QVQLVESGGGLVQAGGSLRLSCAASGSIFGVNAMGWYRQAHGKERELVASITGGDSTNYADSVKGRFTISRDNAKNTVYLLMNSLKPEDTAVYYCAKDHYYRYEEGDYWGQGTQVTVSS", "low polyreactivity"],
  ["QVQLVESGGGLVQAGGSLRLSCAASGRILYYYAMGWYRQAPGKERELVAAISGSAGTTYYADSVKGRFTISRDNAKNPVYLQMNSLKPEDTAVYYCSKYYPYIQADYGYDYWGQGTQVSVSS", "low polyreactivity"]
]}

Input: Supply recorded polyreactivity (PSR sort gate) for "QVQLVESGGGLVQAGGSLRLSCAASGRIFTGNALGWYRQAPGKESELVAAITRNGGSTYYADSVKGRFTLSRDNAKNTVYVQMNSLKPEDTAVYYCAAKLSPVYYRRYDYWGQGTQVTVSS" here.
Output: high polyreactivity

###

assay: yeast display, Sf9 membrane polyspecificity reagent, FACS + sequencing; frameworks hold sequencing errors
Metric name: polyreactivity (PSR sort gate)

Sample answers from the record:
{"columns": ["Input sequence", "polyreactivity (PSR sort gate)"],
 "data": [
  ["QVQLVESGGGLVQAGGSLRLSCAASGSTLESYAMGWYRQAPGKERELVAAISKSGGRTYYADSVKGRFTISRDNAKNTLYLQMNSLKPEDTAVYYCAADSGTHLTYYWGQGTQVTVSS", "high polyreactivity"],
  ["QVQLVESGGGLVQAGGSLRLSCAASGRIIYYAMGRYRQAPGKERELVAAITRNGGTYADSVKGRFTISRDNSKNTVYLPMISLKAEDSAVYYCNADPDFGDDYWGQGTQVTVSS", "low polyreactivity"],
  ["QVQLVESGGGLVQAGGSLRLSCAASGIIFGFNTMGWYRQAPGKERELVAAINGSDGSTYADSVKGRFTISRDNAKNTVYLLMNSLKPEDTAVYYCAARYGSRKEYTYADMDYWGQGTQVTVSS", "low polyreactivity"],
  ["QVQLVESGGGLVQAGGSLRLSCAASGRILYLNAMGWYRQAPGKERELVAAITRRAGSTRYADSVKGRFTISRDNAKNTVYLQMNSLKPEDTAVYYCAVAYYRNRMDYWGQGTQVTVSS", "high polyreactivity"]
]}

Kindly consider the entry below.
Input: Supply recorded polyreactivity (PSR sort gate) for "QVQLVESGGGLVQAGGSLRLSCAASGRTSAWYAMGWYRQAPGKERDLVATISYTGGRTYYADSVKGRFTISRDNAKNTVYLQMNSLKPEDTAVYYCAKRYTSWFSSKFDYWGQGTQVTVSS" here.
Output: high polyreactivity

###

experiment: yeast display, Sf9 membrane polyspecificity reagent, FACS + sequencing; frameworks hold sequencing errors

{"columns": ["Input sequence", "polyreactivity (PSR sort gate)"],
 "data": [
  ["QVQLVESGGGLVQAGGSLRLSCAASGITFDYYGMGWYRQAPGKERALCASITSGGSTNYADSVKGRFTISRDNAKNSVYLQMNSLKPEDTAVYYCAADGYGGYYRGTYYTVYFWGQGTQVTVSS", "low polyreactivity"],
  ["QVQLVETGGGLVQAGGSLRLSCAASGSTFYRYAMGWYRQAPGKERELVAAITRSGGGTHYADSVKGRFTISRDNAKNTVYLQMNSLKPEDTAVYYCAKRQSGYRYDYWGQGTQVTVSS", "low polyreactivity"]
]}

###

test: yeast display, Sf9 membrane polyspecificity reagent, FACS + sequencing; frameworks hold sequencing errors
Metric name: polyreactivity (PSR sort gate)

Sample answers from the record:
{"columns": ["Input sequence", "polyreactivity (PSR sort gate)"],
 "data": [
  ["QVQLGESRGGIVQAGGSLRLSCAASGSTFSYYAMGWYRQAPGKARELVAAISNRGGSTYYADSVKGRFTISRDNAKNTVYLQMNSLKPEDTAVYYCAAYYVFGYSTSGDYWGQGTQVTVSS", "high polyreactivity"],
  ["QVQLVESGGGLVQAGGSLRLSCAASGITFGYNTMGWYRQAPGKERELVAAISGSGGRTYYADSVKGRFTISRDNAKNTVFLQMNSLKPEDTAVYYCAARWPIWSSLYDYWGQGTQVTVSS", "high polyreactivity"],
  ["QVQLVESGGGLVQAGGSLRLSCAASGFTYIFYAMGWYRQAPGKERELVAAITWDGDRTYYADSVKGRFTISRDNAKNTVYLQMNSLKPEDTAVYYCNADEGGNYREDYWGQGTQVTVSS", "low polyreactivity"],
  ["QVQLVESGGGLVQAGGSLRLSCAASGLTYYTYAMGWYRQAPGKERELVAAITASGGRTYYADSVKGRFTISRDNAKNTVYLQMNSLKPEDTAVYYCAADIRGDTYDYWGQGTQVNVSS", "high polyreactivity"],
  ["RVQLVESGGGLVQAGGSLRLSCAASGSTFLVYAMGWYRQAPGKERELVAVIRWRDGSTYYADSVKGRFTISRDNAKNTVYLQLNSLKPEDTAVYYCAAVYWGEEYEYWGQGTQVTVSS", "low polyreactivity"]
]}

Input: Supply recorded polyreactivity (PSR sort gate) for "QVQLEESGGGLVQAGGSLRLSCAASGRIFGYYAMGWYRQAPGKERELVATITFGGGSTYYADSVKGRFTISRDNAKNTVYLQMNSLKPEDTAVYYCAADSGYLGIYGDEYSWGQGTQVTVSS" here.
Output: low polyreactivity

Input: Supply recorded polyreactivity (PSR sort gate) for "QVQLVESGGCLVQAGGRLRLSCAASGFTFGYYAMGWYIQAPGKERELVAAIDWSGGTTYYADSVKGRFTISRDNAKNTVYLQMNSLKPEDTAVYYCAADVVEEDDLEFYYWGQGTQVTVSS" here.
Output: high polyreactivity

Input: Supply recorded polyreactivity (PSR sort gate) for "QVQLVESGGGLVQAGGSLRISCAASGFIFGPNAMGWYRQAPGKERELVAAISYSGGRTYYADSVKGRFTISRDNAKNTVYLQMNILKPEDTAVYYCAQPGRYWGQGTQVTVSS" here.
Output: high polyreactivity

Input: Supply recorded polyreactivity (PSR sort gate) for "QVQLVESGGGLVQAGGSLRLSCAASGSTFSVYAMGWYRQAPGKERELVASISSSVGRTFYADSVKGRFTISRDNSKNTVYLQMNSLKPEDTAVYYCNAGVRYSGFDYWGQGTQVTVSS" here.
Output: high polyreactivity

###

assay: yeast display, Sf9 membrane polyspecificity reagent, FACS + sequencing; frameworks hold sequencing errors
Metric name: polyreactivity (PSR sort gate)

Sample answers from the record:
{"columns": ["Input sequence", "polyreactivity (PSR sort gate)"],
 "data": [
  ["QVQHVESGGGLVQAGGSLRLSCAASGRIFYAYTMGWYRQAPGKERELGAAISRSGSTYYADSVKGRFTISRDNAKNPVYLQMNSLKPEDTAVYYCAADVTGGRKYDYWGQGTQVTVSS", "low polyreactivity"],
  ["QVQLVESGGGLVQAGGSLRLSCAASGFTFKYYVMGWYRQAPGKAREWVAAITNGGSTYYADSVKGRFTISRDNAKNTVYLQMNSLKPEDTAVYYCAASAYYHWLFDYRGQGTQVTVSS", "high polyreactivity"],
  ["QVQLVESGGGLVQAGGSLRLICAASGFTFAYYAMGWYRQATGKERELVAAISSGGGTYYADSVKGRFTISRDNAKNTVYLQMNSLKPEDTAVYYCNARYYFVFGRYNYWGQGTQVTVSS", "high polyreactivity"],
  ["QVQLQETGGGLVQAGGSLRQSCAASRSISPWSYMGRYRQAPGKEREFVASINAGTNTYYADSAKGRITISRDNAKNTVYLQMNSLKPEDTAAYYCAARYWNDYYFPYWGQGTEVTVSS", "low polyreactivity"]
]}

Kindly consider the entry below.
Input: Supply recorded polyreactivity (PSR sort gate) for "QVQLVESGGGLVQAGGSLRLSCAATGRTFIPYAMGWYRQAPGKERELVAAIRTTGGSTYYADSVKGRFTISRDNAKNTVYLQMNSLKPEDTAVYYCAATSRQRPYDYWGQGTQVTVSS" here.
Output: high polyreactivity

###

assay: yeast display, Sf9 membrane polyspecificity reagent, FACS + sequencing; frameworks hold sequencing errors
Metric name: polyreactivity (PSR sort gate)

Sample answers from the record:
{"columns": ["Input sequence", "Metric name", "Endpoint result"],
 "data": [
  ["QVQLVESGGGLVQAGGSHRLSCAASGRIFKINAMGCYRQAPVKERELVAGISGSGSDTYYADSVKGRFTISRDNSKNTVYLQMNSLKPEDTAVYYCAATVVQYYDRDYWGQGTQVTVSS", "polyreactivity (PSR sort gate)", "low polyreactivity"],
  ["QVQLVESGGGLVQAGGSLRLSCAASGRIFFGYAMGWYRQAPGKERELVASISRGGSTNYADSVKGRFTISRDNAKNTVYLEMNSLKPEDTAVYYCAASRRRWSQQQGYGYYYWGQGTQVTVSS", "polyreactivity (PSR sort gate)", "high polyreactivity"],
  ["QVQLVESGGGLVQAGGSLRLSCAASGFTFRRNAMGWYRQAPGKERELVASITINGGSTTYADSVKGRFTISRDNAKNTVYLQMNSLKPEDTAVYYCNKRYRTYRSVPQYEYWGQGTQVTVSS", "polyreactivity (PSR sort gate)", "high polyreactivity"],
  ["QVQLVESGGGLVQAGGSLRLSCAASGRIFRLYAMGWYRQAPGKERELVAAISFSGSRTYYADSVKGRFTISRDNAKNNVYLQMNSLQPEDTAVYYCNKDHYVRYGLDYWGQGTQVTVSS", "polyreactivity (PSR sort gate)", "high polyreactivity"],
  ["QVQLGESGGGLVLAGGSLRLSCAASGYIFRAYAMGWYRQAPGKERELVAAISSRGGSTYYADSVKGRFTSSRDYAKNTVYLQMNSLKPEDTEVYYCAAAYRQPYIGYGYWGQGTQVTVSS", "polyreactivity (PSR sort gate)", "high polyreactivity"]
]}

Kindly consider the entry below.
Input: Supply recorded polyreactivity (PSR sort gate) for "QVQLVESGGGLVQAGGSLRLSCAASGFTFTSNAMGWYRQAPGKERELVAAISRSGGRTYYADSVKGRFTISRDNAKNTVYLQLNSLKPEDTAVYYCNVRAEKRSYELYAYDYWGQGTQVTVSS" here.
Output: high polyreactivity
